# Tested on: SARS-CoV-2 isolate USA-WA1/2020
# EXPERIMENT NOTES: microbe, parasite or virus in culture
# Format: cell-based
# CONDITION NOTES: RB plus 0.15 μM remdesivir, 2-hour RB contact, Vero C1008; read-out: IC50 for inhibition
PARAMETER MEASURED: IC50 (µM)

O=C1OC2(c3cc(I)c(O)c(I)c3Oc3c2cc(I)c(O)c3I)c2c(Cl)c(Cl)c(Cl)c(Cl)c21
47.4

----------
# Test system: SARS-CoV-2
# Assay type: cell-based
# CONDITION NOTES: Calu-3 cells, 48-hour RB contact; read-out: EC50 (viral titer)
pEC50: −log10 of the molar value.
PARAMETER MEASURED: pEC50

O=C1OC2(c3cc(I)c(O)c(I)c3Oc3c2cc(I)c(O)c3I)c2c(Cl)c(Cl)c(Cl)c(Cl)c21 [RB]
7.82
